- study.target: Neuropeptide Y receptor type 1 (Homo sapiens)
- Sequence (P25929 whole entry): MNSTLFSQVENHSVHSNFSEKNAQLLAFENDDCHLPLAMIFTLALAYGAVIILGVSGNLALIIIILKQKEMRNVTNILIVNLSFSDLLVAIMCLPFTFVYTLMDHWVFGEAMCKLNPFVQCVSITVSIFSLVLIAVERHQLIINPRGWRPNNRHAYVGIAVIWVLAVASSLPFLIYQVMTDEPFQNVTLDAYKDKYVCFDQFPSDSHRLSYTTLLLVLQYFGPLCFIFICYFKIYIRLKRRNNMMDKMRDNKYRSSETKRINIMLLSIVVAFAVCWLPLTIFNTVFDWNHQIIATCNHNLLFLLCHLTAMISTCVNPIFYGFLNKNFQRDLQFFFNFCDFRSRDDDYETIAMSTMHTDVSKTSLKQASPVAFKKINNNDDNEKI
- test.details: Displacement of [3H]UR-MK114 from NPY1 receptor in human SK-N-MC cells
- Assay type: cell-based
- experimental.setup: read-out: Ki
parameter.measured: Ki (nM)

structure	study.target	units.of.measure	Ki
N=C(NCCC[C@@H](NC(=O)C(c1ccccc1)c1ccccc1)C(=O)NCc1ccc(O)cc1)NC(=O)CCCc1ccc2ccc3cccc4ccc1c2c34	Neuropeptide Y receptor type 1 (Homo sapiens)	nM	270

[a] N=C(NCCC[C@@H](NC(=O)C(c1ccccc1)c1ccccc1)C(=O)NCc1ccc(O)cc1)NC(=O)CCCn1cc(CO)nn1
[b] COC(=O)CCNC(=O)CCCCCCC(=O)NC(N)=NCCC[C@@H](NC(=O)C(c1ccccc1)c1ccccc1)C(=O)NCc1ccc(O)cc1
[c] N=C(N)NCCCCCC(=O)NC(=N)NCCC[C@@H](NC(=O)C(c1ccccc1)c1ccccc1)C(=O)NCc1ccc(O)cc1
[d] CCCCCCCCCCCCCCCC(=O)NC(N)=NCCC[C@@H](NC(=O)C(c1ccccc1)c1ccccc1)C(=O)NCc1ccc(O)cc1
Ranking field: Ki; order: falling. Would you mind listing the labels in the order requested? d, b, c, a
(d: 460 nM, b: 260 nM, c: 51 nM, a: 3 nM)
